assay: Cytotoxicity in parallel with OC43 CPE assay, without virus; conditions: human
Outcome Measure: viability at 7 days, 3.704 µM (%)
State the answer as a number, implicitly in %.

Param item = CCC(CC)COC(=O)[C@H](C)N[P@](=O)(OC[C@H]1O[C@@](C#N)(c2ccc3c(N)ncnn23)[C@H](O)[C@@H]1O)Oc1ccccc1 [Remdesivir] ; retrieve measured viability at 7 days, 3.704 µM.
86.9

----------
assay: in vitro
Outcome Measure: CC50

Param item = NC(=O)c1ncn([C@@H]2O[C@H](CO)[C@@H](O)[C@H]2O)n1 ; retrieve measured CC50.
> 699 µM

----------
system: SARS CoV-2 (USA_WA1/2020); experiment: SARS-CoV-2 CPE assay in Vero E6 cells; type: cell-based; conditions: Severe acute respiratory syndrome coronavirus 2, Vero C1008, reference compounds in the same assay
Outcome Measure: pIC50
// field semantics: pIC50 = negative decimal log of concentration (mol/L)

>>> endpoint_value("CCC(CC)COC(=O)[C@H](C)N[P@](=O)(OC[C@H]1O[C@@](C#N)(c2ccc3c(N)ncnn23)[C@H](O)[C@@H]1O)Oc1ccccc1")
5.41

Param item = CCN(CCO)CCCC(C)Nc1ccnc2cc(Cl)ccc12 (centres unmarked) [Hydroxychloroquine] ; retrieve measured pIC50.
5.72

----------
tested on: DENV type 2 Rluc-NGC strain; experiment: microbe, parasite or virus in culture; assay type: cell-based; conditions: Dengue virus, Vero
Outcome Measure: EC50
Please don't drop the unit; write it after the number.

Param item = NC(=O)c1ncn([C@@H]2O[C@H](CO)[C@@H](O)[C@H]2O)n1 [Ribavirin] ; retrieve measured EC50.
32.2 µM

----------
test: Cytotoxicity in parallel with OC43 CPE assay, without virus; conditions: human
Outcome Measure: viability at 7 days, 33.33 µM (%)
State the answer as a number, implicitly in %.

Param item = CCC(CC)COC(=O)[C@H](C)N[P@](=O)(OC[C@H]1O[C@@](C#N)(c2ccc3c(N)ncnn23)[C@H](O)[C@@H]1O)Oc1ccccc1 [Remdesivir] ; retrieve measured viability at 7 days, 33.33 µM.
36.9

----------
system: hCoV-229E; test: hCoV-229E CPE assay; assay type: cell-based; settings: Human coronavirus 229E; MRCS cells; data not shown; read-out: IC50
Outcome Measure: IC50 (nM)
State the answer as a number, implicitly in nM.

Param item = CCN(CC)CCCC(C)Nc1ccnc2cc(Cl)ccc12 (stereo not shown) ; retrieve measured IC50.
2200

----------
test: Cytotoxicity in parallel with OC43 CPE assay, without virus; conditions: human
Outcome Measure: viability at 7 days, 1.235 µM (%)
State the answer as a number, implicitly in %.

Param item = CCC(CC)COC(=O)[C@H](C)N[P@](=O)(OC[C@H]1O[C@@](C#N)(c2ccc3c(N)ncnn23)[C@H](O)[C@@H]1O)Oc1ccccc1 ; retrieve measured viability at 7 days, 1.235 µM.
102
